assay: Protein binding in human plasma at 10 uM incubated for 4 hrs by LC/MS/MS analysis; assay type: ADME, cell-free; conditions: read-out: PPB
METRIC_NAME: fraction unbound at 4 h, 10 µM
// no unit, no text: just the number

Q: // query fraction unbound at 4 h, 10 µM value for entry Cc1ccc(-n2nc(C(C)(C)C)cc2NC(=O)N[C@H]2CC[C@@H](Oc3ccc4nnc(C(C)C)n4c3)c3ccccc32)cc1
Ans: 0.001

====

target: Mitogen-activated protein kinase 14 (Homo sapiens, UniProt Q16539); assay: Displacement of SKF-86002 from human inactivated p38alpha assessed as dissociation half life incubated for 2 hrs by fluorescence based analysis
Sequence (Q16539 whole entry): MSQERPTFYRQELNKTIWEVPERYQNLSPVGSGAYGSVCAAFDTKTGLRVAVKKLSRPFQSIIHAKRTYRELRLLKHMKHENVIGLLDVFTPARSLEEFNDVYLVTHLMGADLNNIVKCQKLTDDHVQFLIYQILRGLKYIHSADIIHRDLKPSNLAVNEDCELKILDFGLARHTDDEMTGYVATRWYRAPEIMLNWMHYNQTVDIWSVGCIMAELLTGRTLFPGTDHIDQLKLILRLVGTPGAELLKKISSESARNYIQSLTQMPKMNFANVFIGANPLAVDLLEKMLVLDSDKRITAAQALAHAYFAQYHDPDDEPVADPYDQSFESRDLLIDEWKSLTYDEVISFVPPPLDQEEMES
METRIC_NAME: T1/2

Record excerpt, results attached:
> print(dat)
                            chemical.string  metric.name  test.result
1  Cc1ccc(-n2nc(C(C)(C)C)cc2NC(=O)N[C@H]2CC[C@@H](Oc3ccc4nnc(N5CCN(C)CC5)n4c3)c3ccccc32)cc1         T1/2          9 h
2  C[C@H]1CCCCN1c1nnc2ccc(O[C@@H]3CC[C@H](NC(=O)Nc4cc(C(C)(C)C)nn4-c4cnn(CCN(C)C)c4)c4ccccc43)cn12         T1/2       > 16 h

Q: GET /values?readout=T1/2&item= C[C@@H]1CCC[C@H](C)N1c1nnc2ccc(O[C@@H]3CC[C@H](NC(=O)Nc4cc(C(C)(C)C)nn4-c4cccc(OCCN(C)C)c4)c4ccccc43)cn12
Ans: > 16 h
